The measurements presented in this section are drawn from ChEMBL document CHEMBL1152244.

Recorded measurements of kcat, one per entry
# System: dengue virus type 4
# protocol: Activity of dengue virus 4 recombinant NS3 protease expressed in Escherichia coli C41(DE3) by fluorogenic assay
Non-standard residues stand in square brackets, D forms with d. Residues, ends and D or L forms follow the SMILES beside them. Tyr(3-NO2) = N[C@@H](Cc1ccc(O)c([N+](=O)[O-])c1)C(=O)O; 2Abz = Nc1ccccc1C(=O)O
Write down the numeric answer in s⁻¹ and omit the unit.

Worked cases, kcat given:
compound: C[C@H](NC(=O)c1ccccc1N)C(=O)N1CCC[C@H]1C(=O)N[C@@H](CS)C(=O)N[C@@H](CC(N)=O)C(=O)N[C@@H](Cc1ccc(O)c([N+](=O)[O-])c1)C(N)=O (H-[2Abz]APCN[Tyr(3-NO2)]-NH2)
system_tested: dengue virus type 4
endpoint_label: kcat
test_value: 0.0477
//
compound: C[C@@H](O)[C@H](NC(=O)[C@H](CO)NC(=O)c1ccccc1N)C(=O)N1CCC[C@H]1C(=O)N[C@@H](Cc1cnc[nH]1)C(=O)N[C@@H](Cc1ccc(O)c([N+](=O)[O-])c1)C(N)=O (H-[2Abz]STPH[Tyr(3-NO2)]-NH2)
system_tested: dengue virus type 4
endpoint_label: kcat
test_value: 0.078

Incoming: Record lookup: for dengue virus type 4, what kcat belongs to CC(C)[C@H](NC(=O)[C@H](C)NC(=O)[C@H](C)NC(=O)c1ccccc1N)C(=O)N[C@@H](CC(=O)O)C(=O)N[C@@H](Cc1ccc(O)c([N+](=O)[O-])c1)C(N)=O (H-[2Abz]AAVD[Tyr(3-NO2)]-NH2) ?
Outgoing: 0.113
